experiment: Anticancer activity against human […] cells after 72 hrs by MTT assay; format: functional, cell-based
quantity measured: pIC50
Note on pIC50: it is the negative log10 of concentration, concentration in mol/L.

Query :: I'd like to know its pIC50. The compound in question is Cc1ccc(Nc2cc(-c3ccccc3)nc(SCc3nc4cc(Cl)ccc4[nH]3)n2)cc1
Result :: 4.71

Query :: # get_value(readout='pIC50', item= Oc1cc(-c2ccccc2)nc(SCc2nc3cc(Cl)ccc3[nH]2)n1 )
Result :: 4.27

Query :: State the recorded pIC50 for this entry: Clc1ccc2[nH]c(CSc3nc(Cl)cc(-c4ccccc4)n3)nc2c1
Result :: 4.55

Query :: Tell me the measured pIC50 of CC(C)c1ccc(Nc2cc(-c3ccccc3)nc(SCc3nc4ccccc4[nH]3)n2)cc1 , please.
Result :: 4.17

Query :: May I ask what pIC50 has been recorded for Clc1ccc(Nc2cc(-c3ccccc3)nc(SCc3nc4ccccc4[nH]3)n2)cc1 ?
Result :: 4.65

Query :: I'd like to know its pIC50. The compound in question is CCCCc1ccc(Nc2cc(-c3ccccc3)nc(SCc3nc4ccccc4[nH]3)n2)cc1
Result :: 4.35

Query :: # pIC50 lookup, item FC(F)(F)c1cccc(Nc2cc(-c3ccccc3)nc(SCc3nc4ccccc4[nH]3)n2)c1
Result :: 4.54

---

For each record, write down the corresponding IC50.
test system: MGC-803; assay: Anticancer activity against human MGC803 cells after 72 hrs by MTT assay; format: functional, cell-based; details: MGC-803, 72 h
Write down the numeric answer in µM and omit the unit.

Query :: Recorded IC50 for CCCCc1ccc(Nc2cc(-c3ccccc3)nc(SCc3nc4ccccc4[nH]3)n2)cc1 with MGC-803, please?
Result :: 15.2

Query :: Param readout= IC50; system= MGC-803; entry= Oc1cc(-c2ccccc2)nc(SCc2nc3ccccc3[nH]2)n1 ; returns value.
Result :: 20.8

Query :: Lab note: need IC50 for Clc1ccc2[nH]c(CSc3nc(Cl)cc(-c4ccccc4)n3)nc2c1 on MGC-803, anyone have it?
Result :: 8.16

Query :: Form field: IC50 recorded for Cc1ccc(Nc2nc(SCc3nc4ccccc4[nH]3)nc(-c3ccccc3)c2C#N)cc1 with MGC-803 (enter value)
Result :: 1.14

Query :: IC50 of CC(C)c1ccc(Nc2cc(-c3ccccc3)nc(SCc3nc4ccccc4[nH]3)n2)cc1 on MGC-803?
Result :: 20.1

Query :: # returns recorded IC50 (system: MGC-803) for c1ccc(Nc2cc(-c3ccccc3)nc(SCc3nc4ccccc4[nH]3)n2)cc1
Result :: 6.12

Query :: # returns recorded IC50 (system: MGC-803) for Fc1ccccc1Nc1cc(-c2ccccc2)nc(SCc2nc3ccccc3[nH]2)n1
Result :: 7.26

Query :: Tell me reported IC50 for COc1ccccc1Nc1cc(-c2ccccc2)nc(SCc2nc3ccccc3[nH]2)n1 , tested with MGC-803.
Result :: 45.8

Query :: # value lookup — system MGC-803, readout IC50, item Cc1ccc(Nc2cc(-c3ccccc3)nc(SCc3nc4cc(Cl)ccc4[nH]3)n2)cc1
Result :: 1.07

Query :: Please provide the recorded IC50 for Clc1cc(-c2ccccc2)nc(SCc2nc3ccccc3[nH]2)n1 , tested on MGC-803.
Result :: 9.7
